The measured values listed here are drawn from patent US9187424B1.

Measured log10 IC50 by item
Biological target: UniProt:Q3SYC2
Assay: MGAT SPA Assay
Format: biochemical
Details: membranes from Sf9 cells expressing recombinant human MGAT2; 2-monooleoylglycerol and [3H]-oleoyl-CoA
readout label: log10 IC50 (log10 of the value in nM)

molecule="CCCCCc1ccc(C2(C(F)(F)F)CC(c3ccc(C)cc3)=C(C(=O)Nc3ccc(F)cc3)C(=O)N2)cc1 (stereo not shown) [Example 51]" target_system=UniProt:Q3SYC2 reading=1.80
molecule="Cc1ccc(C2=C(C#N)C(=O)NC(c3ccc(Oc4ncccn4)cc3)(C(F)(F)F)C2)cc1 (stereo not shown) [Example 46]" target_system=UniProt:Q3SYC2 reading=2.94
molecule="O=C1NC(c2ccc(OCCCC(F)(F)F)cc2)(C(F)(F)F)CC(c2ccc(OC(F)F)cc2)=C1n1cnnn1 (stereo not shown) [Example 149]" target_system=UniProt:Q3SYC2 reading=1.72
molecule="Cc1ccc(C2=CC(=O)NC(c3ccc(OCCCC(F)(F)F)cc3)(C(F)(F)F)C2)cc1 (stereo not shown) [Example 70]" target_system=UniProt:Q3SYC2 reading=3.53
molecule="Cc1ccc(C2=C(C#N)C(=O)NC(c3ccc(O)cc3)(C(F)(F)F)C2)cc1 (stereo not shown) [Example 4]" target_system=UniProt:Q3SYC2 reading=3.77
molecule="Cc1ccc(C2=C(C(=O)Nc3ccc(C(F)(F)F)cc3)C(=O)NC(c3ccc(OCCCC(F)(F)F)cc3)(C(F)(F)F)C2)cc1 (stereo not shown) [Example 86]" target_system=UniProt:Q3SYC2 reading=2.30
molecule="CCOc1ccc(-c2ccc(C3(C(F)(F)F)CC(c4ccc(C)cc4)=C(C#N)C(=O)N3)cc2)cn1 (stereo not shown) [Example 7]" target_system=UniProt:Q3SYC2 reading=2.91

---

Target: Human MGAT-2 (Homo sapiens (Human))
Experiment: MGAT LCMS Assay (human MGAT-2)
Format: biochemical
Conditions: human MGAT-2 membranes expressed in Sf9 cells; 2-oleoylglycerol and oleoyl-Coenzyme A; read-out: h-MGAT2 IC50 (nM) LCMS Assay
Lab note - cut at 200 nM for IC50: Satisfied if strictly below, Not satisfied if not.

compound="COc1ccc(NC(=O)C2C(=O)N[C@@](c3ccc(OCCCC(F)(F)F)cc3)(C(F)(F)F)CC2c2ccc(C)cc2)cc1 (single isomer, unassigned) [Example 16-2]" class_assignment="Not satisfied"
compound="COc1ccc(C2=C(C#N)C(=O)NC(c3ccc(OCCCC(F)(F)F)cc3)(C(F)(F)F)C2)cc1F (centres unmarked)" class_assignment=Satisfied
compound="Cc1ccc(C2=C(C#N)C(=O)NC(c3ccc(OCCCCCC(F)(F)F)cc3)(C(F)(F)F)C2)cc1 (centres unmarked)" class_assignment=Satisfied
compound="COc1ccc(C2=C(C#N)C(=O)NC(c3ccc(OCCCC(F)(F)F)cc3)(C(F)(F)F)C2)cc1C (centres unmarked)" class_assignment=Satisfied
compound="Cc1ccc(C2=C(C(=O)Nc3cn(C)cn3)C(=O)NC(c3ccc(OCCCC(F)(F)F)cc3)(C(F)(F)F)C2)cc1 (centres unmarked)" class_assignment="Not satisfied"

---

Biological target: Human MGAT-2 (Homo sapiens (Human))
Test: MGAT SPA Assay
Format: biochemical
Conditions: membranes from Sf9 cells expressing recombinant human MGAT2; 2-monooleoylglycerol and [3H]-oleoyl-CoA
readout label: IC50

compound="COc1ccc(C2=C(c3nn[nH]n3)C(=O)NC(c3ccc(OCCCC(F)(F)F)cc3)(C(F)(F)F)C2)c(F)c1 (stereo not shown) [Example 95]" readout_label=IC50 reading="95 nM"
compound="N#CC1=C(c2ccc3ccccc3c2)CC(c2ccc(OCCCC(F)(F)F)cc2)(C(F)(F)F)NC1=O (stereo not shown) [Example 146]" readout_label=IC50 reading="397 nM"
compound="Cc1ccc(C2=C(C#N)C(=O)NC(c3ccc(F)c(F)c3)(C(F)(F)F)C2)cc1 (stereo not shown) [Example 26]" readout_label=IC50 reading="6430 nM"
compound="Cc1ccc(C2=C(C#N)C(=O)NC(c3ccc(OCCOC(C)(C)C)cc3)(C(F)(F)F)C2)cc1 (stereo not shown) [Example 34]" readout_label=IC50 reading="656 nM"
compound="Cc1ccc(C2=C(C#N)C(=O)NC(c3ccc(Oc4ccccc4)nc3)(C(F)(F)F)C2)cc1 (stereo not shown) [Example 44]" readout_label=IC50 reading="1460 nM"
compound="Cc1ccc(C2=C(C#N)C(=O)NC(c3ccc(Br)cc3)(C(F)(F)F)C2)cc1 (stereo not shown) [Example 3]" readout_label=IC50 reading="1800 nM"
compound="O=C1NC(c2ccc(OCCCC(F)(F)F)cc2)(C(F)(F)F)CC(c2ccc(OC(F)F)cc2)=C1c1nn[nH]n1 (stereo not shown) [Example 93]" readout_label=IC50 reading="37 nM"

---

Recorded measurements of IC50, one per entry
Biological target: Human MGAT-2 (Homo sapiens (Human), UniProt Q3SYC2)
Sequence (Q3SYC2 whole entry): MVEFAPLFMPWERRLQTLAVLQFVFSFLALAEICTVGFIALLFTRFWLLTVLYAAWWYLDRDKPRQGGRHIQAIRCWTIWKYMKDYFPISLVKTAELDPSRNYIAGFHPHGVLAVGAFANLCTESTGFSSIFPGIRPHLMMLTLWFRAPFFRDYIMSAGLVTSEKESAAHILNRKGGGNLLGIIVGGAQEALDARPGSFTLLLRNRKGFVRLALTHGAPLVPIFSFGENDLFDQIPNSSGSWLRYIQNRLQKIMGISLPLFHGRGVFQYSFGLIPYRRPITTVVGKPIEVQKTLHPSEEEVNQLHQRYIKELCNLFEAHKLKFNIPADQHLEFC
Experiment: MGAT LCMS Assay (human MGAT-2);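 note: diolein product quantified by LC/MS with positive APCI, expressed as peak area ratio versus an internal standard, and this ratio used to derive IC50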
Assay type: biochemical
Details: human MGAT-2 membranes expressed in Sf9 cells; 2-oleoylglycerol and oleoyl-Coenzyme A; read-out: h-MGAT2 IC50 (nM) LCMS Assay
readout label: IC50

compound="Cc1ccc(C2=C(c3ccc(OC(F)(F)F)cc3)C(=O)NC(c3ccc(OCCCC(F)(F)F)cc3)(C(F)(F)F)C2)cc1 (stereo not drawn)" reading="4 nM"
compound="Cc1ccc(C2=C(C(=O)Nc3ccc(C(F)(F)F)cc3)C(=O)NC(c3ccc(OCCCC(F)(F)F)cc3)(C(F)(F)F)C2)cc1 (stereo not drawn)" reading="1 nM"
compound="COc1ccc(C(=O)NC2=C(c3ccc(C)cc3)C(F)(F)C(c3ccc(OCCCCC(F)(F)F)cc3)(C(F)(F)F)NC2=O)cc1 (stereo not drawn)" reading="162 nM"

---

Target: Human MGAT-2 (Homo sapiens (Human))
Assay: MGAT SPA Assay
Format: biochemical
Settings: membranes from Sf9 cells expressing recombinant human MGAT2; 2-monooleoylglycerol and [3H]-oleoyl-CoA
Measured IC50 values are reported for all entries that follow.
readout label: IC50 (nM)

compound="Cc1ccc(C2=C(C#N)C(=O)NC(C)(c3ccccc3)C2)cc1 (stereo not shown)" target_system="Human MGAT-2 (Homo sapiens (Human))" reading=1290
compound="COc1ccc(NC(=O)C2C(=O)N[C@@](c3ccc(OCCCC(F)(F)F)cc3)(C(F)(F)F)CC2c2ccc(C)cc2)cc1 (single isomer, unassigned) [Example 16-1]" target_system="Human MGAT-2 (Homo sapiens (Human))" reading=25
compound="COc1ccc(C2=C(n3cnnn3)C(=O)NC(c3ccc(OCCCC(F)(F)F)cc3)(C(F)(F)F)C2)cc1 (stereo not shown)" target_system="Human MGAT-2 (Homo sapiens (Human))" reading=156
compound="COc1cccc(C2=C(C#N)C(=O)NC(c3ccc(OCCCC(F)(F)F)cc3)(C(F)(F)F)C2)c1 (stereo not shown)" target_system="Human MGAT-2 (Homo sapiens (Human))" reading=761
compound="Cc1ccc(C2=C(C#N)C(=O)NC(c3ccc(OCc4ccccc4)cc3)(C(F)(F)F)C2)cc1 (stereo not shown)" target_system="Human MGAT-2 (Homo sapiens (Human))" reading=756
compound="Cc1ccc(C2=C(C(=O)Nc3cccc(Cl)c3)C(=O)NC(c3ccc(OCCCC(F)(F)F)cc3)(C(F)(F)F)C2)cc1 (stereo not shown)" target_system="Human MGAT-2 (Homo sapiens (Human))" reading=709
compound="COc1ccc(C2(C(F)(F)F)CC(c3ccc(C)cc3)=C(c3nnn[nH]3)C(=O)N2)cc1 (stereo not shown)" target_system="Human MGAT-2 (Homo sapiens (Human))" reading=2140

---

Biological target: Human MGAT-2 (Homo sapiens (Human), UniProt Q3SYC2)
Experiment: MGAT SPA Assay;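 note: inhibition scaled between DMSO vehicle as full MGAT2 activity and membranes of uninfected Sf9 cells as blank, IC50 fitted by logistic curve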
Type: biochemical
Conditions: membranes from Sf9 cells expressing recombinant human MGAT2; 2-monooleoylglycerol and [3H]-oleoyl-CoA
Please respond with TRUE when measured IC50 is strictly beneath 800 nM, and with FALSE in all other cases.

compound="Cc1ccc(C2=C(c3ccc(OC(F)(F)F)cc3)C(=O)NC(c3ccc(OCCCC(F)(F)F)cc3)(C(F)(F)F)C2)cc1 (stereo not drawn)" target_system="Human MGAT-2 (Homo sapiens (Human), UniProt Q3SYC2)" class_assignment=TRUE
compound="Cc1ccc(NC(=O)C2=C(c3ccc(C)cc3)CC(c3ccc(OCCCC(F)(F)F)cc3)(C(F)(F)F)NC2=O)cc1 (stereo not drawn)" target_system="Human MGAT-2 (Homo sapiens (Human), UniProt Q3SYC2)" class_assignment=TRUE
compound="Cc1ccc(C2=C(C#N)C(=O)NC(C)(c3ccc(C)c(C)c3)C2)cc1C (stereo not drawn)" target_system="Human MGAT-2 (Homo sapiens (Human), UniProt Q3SYC2)" class_assignment=FALSE
compound="Cc1ccc(C2=C(c3nn[nH]n3)C(=O)NC(c3ccc(OCCCC(F)(F)C(F)(F)F)cc3)(C(F)(F)F)C2)cc1 (stereo not drawn)" target_system="Human MGAT-2 (Homo sapiens (Human), UniProt Q3SYC2)" class_assignment=TRUE
compound="COc1ccc(C2(C(F)(F)F)CC(c3ccc(C)cc3)=C(C(=O)Nc3ccc(F)cc3)C(=O)N2)cc1 (stereo not drawn)" target_system="Human MGAT-2 (Homo sapiens (Human), UniProt Q3SYC2)" class_assignment=TRUE
compound="Cc1ccc(C2=C(C(=O)Nc3ccc(OC(F)(F)F)cc3)C(=O)NC(C)(c3ccc(OCCCC(F)(F)F)cc3)C2)cc1 (stereo not drawn)" target_system="Human MGAT-2 (Homo sapiens (Human), UniProt Q3SYC2)" class_assignment=TRUE
compound="Cc1ccc(C2=C(NC(=O)c3cc(Br)no3)C(=O)NC(c3ccc(OCCCC(F)(F)F)cc3)(C(F)(F)F)C2)cc1 (stereo not drawn)" target_system="Human MGAT-2 (Homo sapiens (Human), UniProt Q3SYC2)" class_assignment=TRUE
compound="COc1ccc(C2=C(C#N)C(=O)NC(c3ccc(OCCCC(F)(F)F)cc3)(C(F)(F)F)C2)c(F)c1 (stereo not drawn) [Example 81]" target_system="Human MGAT-2 (Homo sapiens (Human), UniProt Q3SYC2)" class_assignment=TRUE
compound="Cc1ccc(C2=C(NC(=O)c3oncc3C)C(=O)NC(c3ccc(OCCCC(F)(F)F)cc3)(C(F)(F)F)C2)cc1 (stereo not drawn)" target_system="Human MGAT-2 (Homo sapiens (Human), UniProt Q3SYC2)" class_assignment=TRUE
compound="Cc1ccc(C2=C(C#N)C(=O)NC(c3ccc(OCCC4CCCC4)cc3)(C(F)(F)F)C2)cc1 (stereo not drawn)" target_system="Human MGAT-2 (Homo sapiens (Human), UniProt Q3SYC2)" class_assignment=TRUE
compound="COc1ccc(NC(=O)C2=C(c3ccc(C)cc3)C(F)(F)C(c3ccc(OCCC(F)(F)F)cc3)(C(F)(F)F)NC2=O)cc1 (stereo not drawn)" target_system="Human MGAT-2 (Homo sapiens (Human), UniProt Q3SYC2)" class_assignment=FALSE
compound="N#CC1=C(c2cccc(Cl)c2)CC(c2ccc(OCCCC(F)(F)F)cc2)(C(F)(F)F)NC1=O (stereo not drawn)" target_system="Human MGAT-2 (Homo sapiens (Human), UniProt Q3SYC2)" class_assignment=FALSE
compound="N#CC1=C(c2ccc3ccccc3c2)CC(c2ccc(OCCCC(F)(F)F)cc2)(C(F)(F)F)NC1=O (stereo not drawn) [Example 73]" target_system="Human MGAT-2 (Homo sapiens (Human), UniProt Q3SYC2)" class_assignment=TRUE
compound="Cc1ccc(C2=C(C#N)C(=O)NC(c3ccc(N(C)C)cc3)(C(F)(F)F)C2)cc1 (stereo not drawn)" target_system="Human MGAT-2 (Homo sapiens (Human), UniProt Q3SYC2)" class_assignment=FALSE
compound="Cc1ccc(C2=C(NC(=O)c3cc(F)ccc3Cl)C(=O)NC(c3ccc(OCCCC(F)(F)F)cc3)(C(F)(F)F)C2)cc1 (stereo not drawn)" target_system="Human MGAT-2 (Homo sapiens (Human), UniProt Q3SYC2)" class_assignment=TRUE
compound="COc1ccc(C2=C[C@](c3ccc(OCCCC(F)(F)F)cc3)(C(F)(F)F)NC(=O)C2(F)C#N)cc1 (single isomer, unassigned)" target_system="Human MGAT-2 (Homo sapiens (Human), UniProt Q3SYC2)" class_assignment=FALSE
compound="CCCCCCCCCCCCCCCCNC(=O)C1(C)CC(c2ccc(C)cc2)=C(C(=O)Nc2ccc(OC)cc2)C(=O)N1 (stereo not drawn)" target_system="Human MGAT-2 (Homo sapiens (Human), UniProt Q3SYC2)" class_assignment=TRUE
compound="COc1ccc(C(=O)NC2=C(c3ccc(C)cc3)C(F)(F)C(c3ccc(OCCCC(F)(F)F)cc3)(C(F)(F)F)NC2=O)cc1 (stereo not drawn)" target_system="Human MGAT-2 (Homo sapiens (Human), UniProt Q3SYC2)" class_assignment=FALSE
compound="COc1ccc(NC(=O)C2=C(c3ccc(C)cc3)CC(c3ccc(OCCCC(F)(F)F)cc3)(C(F)(F)F)NC2=O)cc1F (stereo not drawn)" target_system="Human MGAT-2 (Homo sapiens (Human), UniProt Q3SYC2)" class_assignment=TRUE
compound="Cc1ccc(C2=C(C(=O)Nc3ccc(-c4nnn[nH]4)nc3)C(=O)NC(c3ccc(OCCCC(F)(F)F)cc3)(C(F)(F)F)C2)cc1 (stereo not drawn)" target_system="Human MGAT-2 (Homo sapiens (Human), UniProt Q3SYC2)" class_assignment=TRUE
compound="O=C1NC(c2ccc(OCCCC(F)(F)F)cc2)(C(F)(F)F)CC(c2ccc(C(F)(F)F)cc2)=C1c1nn[nH]n1 (stereo not drawn)" target_system="Human MGAT-2 (Homo sapiens (Human), UniProt Q3SYC2)" class_assignment=TRUE
compound="CCCCCNC(=O)C1=C(c2ccc(C)cc2)CC(c2ccc(OCCCC(F)(F)F)cc2)(C(F)(F)F)NC1=O (stereo not drawn)" target_system="Human MGAT-2 (Homo sapiens (Human), UniProt Q3SYC2)" class_assignment=FALSE
compound="COc1ccc(NC(=O)C2C(=O)N[C@@](c3ccc(OCCCC(F)(F)F)cc3)(C(F)(F)F)CC2c2ccc(C)cc2)cc1 (single isomer, unassigned) [Example 16-2]" target_system="Human MGAT-2 (Homo sapiens (Human), UniProt Q3SYC2)" class_assignment=FALSE
compound="CCCCCCCNC(=O)C1(C)CC(c2ccc(C)cc2)=C(C(=O)Nc2ccc(OC)cc2)C(=O)N1 (stereo not drawn)" target_system="Human MGAT-2 (Homo sapiens (Human), UniProt Q3SYC2)" class_assignment=TRUE
compound="Cc1ccc(C2=C(C(=O)Nc3ccc(F)cc3)C(=O)NC(c3ccc(Oc4ccccc4)cc3)(C(F)(F)F)C2)cc1 (stereo not drawn) [Example 165]" target_system="Human MGAT-2 (Homo sapiens (Human), UniProt Q3SYC2)" class_assignment=TRUE
compound="N#CC1=C(c2ccc(C(F)(F)F)cc2)CC(c2ccc(OCCCC(F)(F)F)cc2)(C(F)(F)F)NC1=O (stereo not drawn)" target_system="Human MGAT-2 (Homo sapiens (Human), UniProt Q3SYC2)" class_assignment=FALSE
compound="Cc1ccc(C2=C(C#N)C(=O)NC(c3cccc(Br)c3)(C(F)(F)F)C2)cc1 (stereo not drawn)" target_system="Human MGAT-2 (Homo sapiens (Human), UniProt Q3SYC2)" class_assignment=FALSE
